test system: HepG2; test: GSK_TCMDC: Percent inhibition of human HepG2 cell line. Test compounds present at 10uM.; assay type: functional
Respond with YES for Inhibition values of 40% and above, NO for values below.

>>> df
                                    compound  assayed_target  category
 0  NCC(NC(=O)c1ccc(-c2c[nH]c3ncccc23)s1)c1ccccc1.O=CO (stereo not drawn)           HepG2       YES
 1          NS(=O)(=O)NCCCN1CCN(c2ccccc2)CC1           HepG2        NO
 2  O=C(Cn1c(CCc2cccc(F)c2F)cc(=O)c2cccnc21)N(CCCn1ccnc1)Cc1ccc(-c2ccc(C(F)(F)F)cc2)cc1           HepG2        NO
 3  COc1ccc(Nc2nccc(NCC(O)c3cccc(C(F)(F)F)c3)n2)cc1 (stereo not drawn)           HepG2        NO
 4  CCn1ccc2c(N3CCCC3=O)cc(C(=O)N[C@@H](Cc3ccccc3)[C@H](O)CNC3CCCCC3)cc21           HepG2        NO
 5  COc1ccc(Nc2cc(C)nc(NCc3ccc4c(c3)OCO4)n2)cc1           HepG2        NO
 6  CCOc1cc2ncnc(Nc3ccc(OCc4ccccc4F)c(Cl)c3)c2cc1OCC.Cl           HepG2        NO
 7  Cc1cc(OCC2CCCN(c3ncc(C(=O)NC4CC4)cc3Cl)C2)ccc1F (stereo not drawn)           HepG2        NO
 8  COc1ccc(-c2cnn3ccc(Nc4cc(OC)c(OC)c(OC)c4)nc23)cc1OC           HepG2       YES
 9  Cc1cc(C2CCN(CCCCNC(=O)c3ccc(NC(=O)c4ccc(Cl)cc4)cc3)CC2)c(C)cc1OCc1ccccn1.Cl           HepG2        NO
10  O=C(/C=C/c1ccc(Cl)c(Cl)c1)NCCCCCN1CCC(C(=O)Nc2ccc(F)c(Cl)c2)CC1           HepG2        NO
11  COc1ccc2nc(-c3ccccc3)cc(N/N=C/c3ccc([N+](=O)[O-])o3)c2c1           HepG2       YES
12  Cc1ccc(NC(=O)c2cccc(C#N)c2)cc1-c1ccc(C(=O)Nc2ccncc2)cc1           HepG2        NO
13  O=C(O)C(F)(F)F.O=C1CCCN1CCCNCc1cccc(-c2ccc(-c3nc4cc(C(F)(F)F)ccc4[nH]3)s2)c1           HepG2        NO
14  CC(=O)Oc1c(C2CCN(CCCCNC(=O)c3ccc(-c4ccc(C#N)cc4)cc3)CC2)ccc2c1CCCC2           HepG2        NO
15  COc1cc(F)c2ncc(Cl)c([C@@H](O)CN3CCC(NCc4cc5c(cn4)OCCO5)CC3)c2c1.Cl           HepG2        NO
16  CCNc1cc(C(=O)N[C@@H](Cc2ccccc2)[C@H](O)CNC2(CC)CC2)cc(N2CCCCS2(=O)=O)c1.Cl           HepG2       YES
17  O=c1cc(NCCCNCc2cccc(OC(F)(F)C(F)F)c2)[nH]c2ccccc12           HepG2        NO
